assay.method.text: COS7 lysate on small-molecule microarray, probe aHis, 635 nm (AID 1123);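 note: z-score combines 667nm fluorescence intensity with signal-to-noise per printed compound spot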
particulars: COS7 cell lysate, fluorescence, higher = more signal
measurement.name: composite z-score
Answer using only a numeral; do not append any unit.

# example entries with known answers
> print(dat)
                                   molecule   measurement.name  quantitative.result
1  CC(C)(C)N1C(=O)[C@H]2[C@H]3[C@H](O)[C@H](O)CC(=O)[C@@H]3CC[C@H]2C1=O  composite z-score                0.113
2  CC(C)CON=C1C[C@@H](O)[C@@H](O)[C@@H]2[C@@H]3C(=O)N(C4CCCCC4)C(=O)[C@@H]3CC[C@H]12  composite z-score                 0.84
3  CC(=O)OC[C@H]1O[C@@H](ON=C(C)CCN2CCCc3nc(C)c(C)cc32)[C@H](OC(C)=O)[C@@H](OC(C)=O)[C@@H]1OC(C)=O  composite z-score                0.678
4  CO[C@H]1COC(=O)[C@@H]2CCCN2C(=O)CC=C[C@@H](C)[C@H](OC)COC(=O)[C@@H](OCc2ccccc2)C=C[C@@H]1C  composite z-score               -0.756
5  CO[C@H]1COC(=O)[C@@H](C)COC(=O)[C@H](C)NC(=O)CC=C[C@H]1C  composite z-score               -0.866
6  CCOC(=O)[C@H](CC(C)C)NC(=O)CCC1CC(OC(=O)NCc2ccc3c(c2)OCO3)CC2(CCCC(COC(=O)NCCCN3CCCC3=O)O2)O1 (some centres not stated)  composite z-score                0.659

Asked: I have this molecule here, CCCCC#C[C@@H]1C=C[C@H](OC(C)=O)[C@@H](COC(C)=O)O1 , and I need its recorded composite z-score.
Given back: 0.015

----------
Test system: Noggin (protein binding on small-molecule microarray)
assay.method.text: Noggin binders on small-molecule microarray, primary screen, biochemical, 635/667 nm fluorescence (AID 1095);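 note: score merges 667 nm feature fluorescence with signal to noise over triplicate slides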
particulars: 635 nm fluorescence, higher = more signal
composite z-score vs 0.8: at or above is Fulfilled, below is Not fulfilled.

Asked: Could you tell me if the measured composite z-score of Cc1cc2c(c(=O)o1)[C@@H](O)[C@H]1O[C@H]1C2=O reaches 0.8 or more?
Given back: Fulfilled

----------
assay.method.text: Plasmodium falciparum growth inhibition, primary screen, strain 3D7, DAPI fluorescence, 100 nL (AID 1184);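 note: parasites grown inside human red blood cells in medium with human serum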
particulars: P. falciparum 3D7 growth, 3 d, higher = more signal
Overview of reported z-score across a group of compounds:
Answer using only a numeral; do not append any unit.

# example entries with known answers
> print(dat)
                                   compound  quantitative.result
1  C#CCCCON=C1[C@H]2CCn3c(=O)n(-c4ccccc4)c(=O)n3[C@H]2[C@H](O)[C@@H]2O[C@H]12                -1.19
2  CC(C)=CCCC(C)=CCON=C1C[C@@H](O)[C@@H](O)[C@@H]2[C@@H]3C(=O)N(c4ccc(F)cc4F)C(=O)[C@@H]3CC[C@H]12               0.0436
3  C#CCCCON=C1C[C@@H](O)[C@@H](O)[C@@H]2[C@@H]3C(=O)N(c4cccc(Oc5ccccc5)c4)C(=O)[C@@H]3CC[C@H]12                 0.63
4  COc1ccc(COC(=O)NN=C2C[C@@H](O)[C@@H](O)[C@@H]3[C@@H]4C(=O)N(c5ccc(F)cc5F)C(=O)[C@@H]4CC[C@H]23)cc1                -1.93
5  Cc1ccc(S(=O)(=O)n2c3ccccc3c3nnc(C(=O)c4ccccc4)nc32)cc1                0.892

Asked: I have this compound here, C=CC1=C[C@H](O)[C@@H]2O[C@@H]2C12OCCCO2 , and I need its recorded z-score.
Given back: -0.706

Asked: I have this compound here, CCOC(=O)[C@H](CC(C)C)NC(=O)CCC1CC(OC(=O)NCc2ccc3c(c2)OCO3)CC2(CCCC(COC(=O)NCC3CCCCC3)O2)O1 (some centres not stated) , and I need its recorded z-score.
Given back: -1.77

----------
Test system: Fibrinogen (Alexa647-labelled)
assay.method.text: fibrinogen binders on compound microarrays, profiling panel, artefact control for SMM control-protein annotation, biochemical, small-molecule microarray, 635/667 nm fluorescence (AID 1131);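 note: z-score merges 667 nm fluorescence with per-spot signal-to-noise over triplicate slides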
particulars: fibrinogen-A647 binding fluorescence, higher = more signal
composite z-score vs -0.2: at or above is class 1, below is class 0.

See these solved cases before continuing.
> print(dat)
                           molecular.string  assigned.label
1  COc1cc(O)c(C(=O)C=Cc2ccc3c(c2)OCO3)c(OC)c1         class 1
2  O=C1[C@H]2[C@H]3[C@H](O)[C@H](O)CC(=NOC[C@@H](O)COCc4ccco4)[C@H]3CC[C@H]2C(=O)N1Cc1ccccc1         class 0
3      CC=CC1=C(CO)C(=O)[C@@H]2O[C@@H]2C1=O         class 0
4  Cc1cc2c(nc1C)CCCN2CC(O)CN1CCCc2nc(C)c(C)cc21         class 0

Consider the record given below.
Asked: Could you tell me if the measured composite z-score of COc1ccc(O[C@@H]2[C@H](O)CO[C@@H]2C=Cc2ccccc2)cc1 reaches -0.2 or more?
Given back: class 0

----------
assay.method.text: basal 3T3-L1 adipocyte mitochondrial potential changes, profiling panel, cell-based, JC-1 fluorescence, 3T3-L1 adipocytes, 24 h, 100 nL compound (AID 1168); note: test concentration not given here
particulars: JC-1 mitochondrial fluorescence, higher = more signal, called active from +8 up or from −8 down
measurement.name: z-score
Answer using only a numeral; do not append any unit.

# example entries with known answers
> print(dat)
                                   compound  quantitative.result
1  O=C1CCCC=C1C(CCc1ccccc1)OC(=O)c1ccc(Br)cc1 (stereo not drawn)                -1.15
2  CC(C)CON=C1C[C@@H](O)[C@@H](O)[C@@H]2[C@@H]3C(=O)N(C4CCCCC4)C(=O)[C@@H]3CC[C@H]12               0.0297
3  CCOC(=O)[C@H](CC(C)C)NC(=O)CCC1CC(OC(=O)NCCc2ccc(F)cc2)CC2(CCCC(COC(=O)NCCC(C)C)O2)O1 (stereo partly drawn)                0.152
4  CO[C@H]1COC(=O)CC=C[C@@H](C)[C@H](NS(=O)(=O)c2ccc(C)cc2)COC(=O)CCC[C@@H]1C               -0.134
5  COc1cccc([C@H]2Oc3ccc(OC)cc3C(=NOC[C@@H](O)[C@H]3O[C@@H]4OC(C)(C)O[C@@H]4[C@H]3O)[C@@H]2O)c1               -0.751
6  C=CC[C@@H]1C=C[C@H](ON=C(C)CCC(=O)OC[C@H]2O[C@H](C#Cc3ccccc3)C=C[C@@H]2Oc2ccc(C)cc2)[C@@H](CO)O1               -0.311
7  COC(=O)CC=C[C@@H](C)[C@@H](C=NOC(C)CN1CCCc2nc(C)c(C)cc21)OC (stereo partly drawn)                0.111

Moving on to the next compound.
Asked: I have this compound here, CO[C@H]1COC(=O)CCC[C@@H](C)[C@H](OC)COC(=O)[C@@H](C)NC(=O)CC=C[C@@H]1C , and I need its recorded z-score.
Given back: 1.34

----------
target.system: Follistatin (Homo sapiens) (UniProt P19883)
Sequence (P19883 whole entry, looked up): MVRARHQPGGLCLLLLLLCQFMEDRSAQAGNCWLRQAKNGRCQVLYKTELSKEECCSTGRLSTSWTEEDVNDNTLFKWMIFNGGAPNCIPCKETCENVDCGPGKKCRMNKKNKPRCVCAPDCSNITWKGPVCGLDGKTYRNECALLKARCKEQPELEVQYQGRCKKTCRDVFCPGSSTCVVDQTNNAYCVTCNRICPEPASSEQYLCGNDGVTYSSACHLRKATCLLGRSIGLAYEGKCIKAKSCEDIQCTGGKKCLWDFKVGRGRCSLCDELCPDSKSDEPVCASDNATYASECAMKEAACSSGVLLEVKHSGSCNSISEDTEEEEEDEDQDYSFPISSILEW
assay.method.text: follistatin binders on small-molecule microarrays, primary screen, biochemical, small-molecule microarray, 635/667 nm fluorescence (AID 1132)
particulars: FST binding, 635 nm fluorescence, higher = more signal
measurement.name: composite z-score
Answer using only a numeral; do not append any unit.

Asked: I have this molecule here, C[C@H](ON=C1[C@H]2CCn3c(=O)n(-c4ccccc4)c(=O)n3[C@H]2[C@H](O)[C@@H]2O[C@H]12)c1cn([C@H](CO)Cc2ccccc2)nn1 , and I need its recorded composite z-score.
Given back: 0.3

Asked: I have this molecule here, CC(C)=CCCC(C)=CCON=C1C[C@@H](O)[C@@H](O)[C@@H]2[C@@H]3C(=O)N(C4CCCCC4)C(=O)[C@@H]3CC[C@@H]12 , and I need its recorded composite z-score.
Given back: 0.831

----------
target.system: Alpha-bungarotoxin (Bungarus multicinctus) (UniProt P60615)
Sequence (P60615 whole entry, looked up): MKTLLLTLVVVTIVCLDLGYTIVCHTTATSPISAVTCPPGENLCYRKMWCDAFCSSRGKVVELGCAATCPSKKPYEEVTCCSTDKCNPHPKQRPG
assay.method.text: alpha-bungarotoxin binders on microarray, profiling panel, artefact control for SMM control protein annotation, biochemical, small-molecule microarray, Alexa647 label, 635/667 nm fluorescence (AID 1117)
particulars: alpha-BTX-A647 binding fluorescence, higher = more signal
composite z-score vs 0.3: at or above is satisfied, below is not satisfied.

See these solved cases before continuing.
> print(dat)
                                   compound  assigned.label
1  CCOC(=O)[C@H](CC(C)C)NC(=O)CCC1CC(OC(=O)NCc2cccc3ccccc23)CC2(CCCC(COC(=O)NCCOc3ccccc3)O2)O1 (some centres not stated)   not satisfied
2  CCC(=O)[C@@]1(O)C(=O)N2C(=C3C(=O)OCC[C@@H]31)N(Cc1ccccc1)C(C)=C(C(=O)OC)[C@H]2c1ccccc1   not satisfied
3  CCc1cc2c(nc1CC)CCN(CCC(C)=NO[C@@H](C)c1cn([C@H](CO)Cc3ccccc3)nn1)C2       satisfied
4  CCOC(=O)NN=C1C[C@@H](O)[C@@H](O)[C@@H]2[C@@H]3C(=O)N(C(C)(C)C)C(=O)[C@@H]3CC[C@H]12   not satisfied
5  O=C1[C@H]2[C@H]3[C@H](O)[C@H](O)CC(=NOCc4ccccc4)[C@H]3CC[C@H]2C(=O)N1Cc1ccc2c(c1)OCO2       satisfied

Asked: Could you tell me if the measured composite z-score of COc1cccc([C@H]2Oc3ccc(OC)cc3C(=NO[C@H](C)c3cn([C@H](CO)Cc4ccccc4)nn3)[C@@H]2O)c1 reaches 0.3 or more?
Given back: not satisfied

Asked: Could you tell me if the measured composite z-score of CC(CCN1CCc2nc(-c3ccccc3)c(-c3ccccc3)cc2C1)=NOC[C@@H](O)[C@H]1O[C@@H]2OC(C)(C)O[C@@H]2[C@H]1O reaches 0.3 or more?
Given back: satisfied
